For each of the compounds below, state its pKi.
On this scale, pKi is minus log10 of a concentration expressed in M (mol/L).

# lookup: C[C@H]1O[C@@H](NS(N)(=O)=O)[C@@H](O)[C@@H](O)[C@@H]1O on Carbonic anhydrase 9 (Homo sapiens, UniProt Q16790), pKi = 5.50

The measured pKi that CC(=O)OC[C@H]1O[C@@H](NS(N)(=O)=O)[C@H](OC(C)=O)[C@@H](OC(C)=O)[C@H]1OC(C)=O showed for Carbonic anhydrase 9 (Homo sapiens, UniProt Q16790) is 8.14

# lookup: CC(=O)OC[C@H]1O[C@@H](NS(N)(=O)=O)[C@H](OC(C)=O)[C@@H](OC(C)=O)[C@@H]1OC(C)=O on Carbonic anhydrase 9 (Homo sapiens, UniProt Q16790), pKi = 8.11

Reported Carbonic anhydrase 9 (Homo sapiens, UniProt Q16790) pKi for item CC(=O)OC[C@H]1O[C@@H](NS(N)(=O)=O)C[C@@H](OC(C)=O)[C@H]1OC(C)=O was 7.80

Entry CC(=O)OC[C@H]1O[C@@H](NS(N)(=O)=O)C[C@@H](OC(C)=O)[C@@H]1OC(C)=O ; assay system Carbonic anhydrase 9 (Homo sapiens, UniProt Q16790); pKi recorded at 7.89

Item CC(=O)OC[C@H]1O[C@@H](NS(N)(=O)=O)[C@@H](OC(C)=O)[C@@H](OC(C)=O)[C@@H]1OC(C)=O ; assay system Carbonic anhydrase 9 (Homo sapiens, UniProt Q16790); pKi reported as 8.30
